These measurements were taken from ChEMBL document CHEMBL1145081.

test_target: UniProt P33535
Sequence (P33535 whole entry): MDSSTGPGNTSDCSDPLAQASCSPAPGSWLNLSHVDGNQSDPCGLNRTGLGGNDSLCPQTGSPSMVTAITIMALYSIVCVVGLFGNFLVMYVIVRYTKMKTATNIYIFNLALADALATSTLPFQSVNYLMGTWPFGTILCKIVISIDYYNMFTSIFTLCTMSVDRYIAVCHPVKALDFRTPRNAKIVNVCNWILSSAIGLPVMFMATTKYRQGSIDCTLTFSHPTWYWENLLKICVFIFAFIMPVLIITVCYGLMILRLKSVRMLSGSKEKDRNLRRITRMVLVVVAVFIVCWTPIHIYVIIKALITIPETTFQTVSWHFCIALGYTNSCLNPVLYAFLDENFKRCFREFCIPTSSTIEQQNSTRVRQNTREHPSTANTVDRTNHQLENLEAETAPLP
assay_text: Binding affinity towards rat Opioid receptor mu 1 expressed in CHO cells of chinese hamster ovary was determined using [3H]DAMGO
Assay type: cell-based
As shown below, each of these compounds has a reported Ki value.

{"structure_as_smiles": "CC(C)C[C@H](NC(=O)[C@@]1(NC(=O)CNC(=O)CNC(=O)[C@@H](N)Cc2ccc(O)cc2)CCc2ccccc2C1)C(=O)N[C@@H](CCCN=C(N)N)C(=O)N[C@@H](CCCN=C(N)N)C(=O)N[C@H](C)C(=O)N[C@@H](CCCN=C(N)N)C(=O)N1CCC[C@H]1C(=O)N[C@@H](CCCCN)C(N)=O", "test_target": "UniProt P33535", "Ki": "0.0329 µM"}
{"structure_as_smiles": "CC(C)C[C@H](NC(=O)[C@H](CCc1ccccc1)NC(=O)CNC(=O)CNC(=O)[C@@H](N)Cc1ccc(O)cc1)C(=O)N[C@@H](CCCN=C(N)N)C(=O)N[C@@H](CCCN=C(N)N)C(=O)N[C@H](C)C(=O)N[C@@H](CCCN=C(N)N)C(=O)N1CCC[C@H]1C(=O)N[C@@H](CCCCN)C(N)=O", "test_target": "UniProt P33535", "Ki": "0.047 µM"}
